- experimental-protocol: yeast display, Sf9 membrane polyspecificity reagent, FACS + sequencing; frameworks hold sequencing errors
result-type: polyreactivity (PSR sort gate)

Give reported polyreactivity (PSR sort gate) value for `QVQLVESGGGLVQAGGSLRLRCAASGRTIASYTMGWYRQAPGKEREWVAAISKSGGSTYYADSVKGRFTNSRDNAKNTVYLQMNSLKPEDTAVYYCAKRRSGNVRKYDYWGQGTQVTVSS` high polyreactivity

Give reported polyreactivity (PSR sort gate) value for `QVQLVESGGGLVQAGGSLRLSCAASGSTFRFNTMGWYRQAPGKERELVAAISYSGGSTYYADSVKGRFTISRDNAKNTVYLQMNSLKPEDTAVYYCAVQAWYLTYSYPYSKGYYWGQGTQVTVSS` high polyreactivity

Attribution: the nanobody polyreactivity screen of Harvey et al. (2022)
